- Tested on: Streptococcus pneumoniae IMC B-1235 (PRSP)
- assay name: Antimicrobial activity test (MIC), clinical isolate IMC B-1235
- Assay type: cell-based
- test parameters: PRSP clinical isolate IMC B-1235
Label yes (1) when MIC < 2 µg/mL; otherwise no (0).

Worked examples, 6 compounds total:
compound	study target	category label
CCC1OC(=O)CCC(C)C(OC2OC(C)CC(N(C)C)C2O)C(CC=O)CC(C)C(=O)C=CC(C)=CC1COC(C)=O (stereo not shown) [MKT-2002]	Streptococcus pneumoniae IMC B-1235 (PRSP)	no (0)
CCC1OC(=O)CCC(C)C(OC2OC(C)CC(N(C)C)C2O)C(CC=O)CC(C)C(=O)C=CC(C)=CC1COC(=O)Cc1ccccc1 (stereo not shown) [MKT-2005]	Streptococcus pneumoniae IMC B-1235 (PRSP)	yes (1)
C=CCOCC1C=C(C)C=CC(=O)C(C)CC(CC=O)C(OC2OC(C)CC(N(C)C)C2O)C(C)CCC(=O)OC1CC (stereo not shown) [MKT-3701]	Streptococcus pneumoniae IMC B-1235 (PRSP)	no (0)
CCC1OC(=O)CCC(C)C(OC2OC(C)CC(N(C)C)C2O)C(CC=O)CC(C)C(=O)C=CC(C)=CC1CSc1ccccn1 (stereo not shown) [MKT-3003]	Streptococcus pneumoniae IMC B-1235 (PRSP)	yes (1)
CCC1OC(=O)CCC(C)C(OC2OC(C)CC(N(C)C)C2O)C(CC=O)CC(C)C(=O)C=CC(C)=CC1CN (stereo not shown) [MKT-3005]	Streptococcus pneumoniae IMC B-1235 (PRSP)	no (0)
CCC1OC(=O)CCC(C)C(OC2OC(C)CC(N(C)C)C2O)C(CC=O)CC(C)C(=O)C=CC(C)=CC1CNC(=O)c1ccccc1 (stereo not shown) [MKT-3202]	Streptococcus pneumoniae IMC B-1235 (PRSP)	yes (1)

## Task Does the reported MIC of the following compound sit strictly below 2 µg/mL? CCC1OC(=O)CCC(C)C(OC2OC(C)CC(N(C)C)C2O)C(CC=O)CC(C)C(=O)C=CC(C)=CC1COC(=O)NCc1ccc(OC)cc1 (stereo not shown) [MKT-1011]
## Result no (0)
